- Protocol: chemical genetic growth profiling, strain panel (AID 1159580);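 further: tested at 20 µM; growth read once vehicle control cultures reached saturation at 30 °C; 1 = growth at the plate median or of vehicle wells; lower values mean less growth of the strain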
- Condition Notes: S. cerevisiae deletion strains, growth OD, locus YLR039C, strain RIC1, hits give low values
Among all 5,500 compounds or so, about 2,000 (36%) were called active. Not shown: some 18% with an inconclusive outcome. The list shows a part of the results.
In this section, each of the molecules is paired with its reported normalized growth.

Consider the worked cases shown below.
[
  {
    "Molecule": "COc1cc2c(cc1OC)C1C(=O)c3c(cc4c(c3O)C=CC(C)(C)O4)OC1CO2 (stereo not given)",
    "Value Reported": "0.992 (inactive)"
  },
  {
    "Molecule": "NCCSSCCN",
    "Value Reported": "1.02 (inactive)"
  }
]

The molecule listed as CC(=O)N[C@@H](CC(C)C)C(=O)O shows normalized growth equal to 0.958 (inactive)

Noted for C=Cc1c2[nH]c(c1C)C=c1[nH]c(c(C)c1C=C)=CC1N=C(C=c3[nH]c(c(C)c3CCC(=O)O)=C2)C(CCC(=O)O)=C1C (stereo not given) : its normalized growth reads 0.996 (inactive)
